System: MLCK
Construct: gene MYLK3
Settings: concentration: 1 μM, replicates: in singlicate; n = 1;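 note: KINOMEscan kinase panel screen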
Measure: %Inh (%)
Express it in %; write the number only.

Observe how each entry below is paired with its result.
INPUT: Could you tell me which %Inh is on file for `COc1ccc(S(=O)(=O)NC2CCN(c3cc(C)nc(Nc4cccc(C#N)c4)n3)CC2)cc1.O=C(O)C(F)(F)F` ?
OUTPUT: 0

INPUT: Could you tell me which %Inh is on file for `CCCCCc1nc2c(N)ncnc2n1CCCCC` ?
OUTPUT: 0

INPUT: Could you tell me which %Inh is on file for `O=C(NCCCN1CCOCC1)c1cccc(Nc2nccc(Nc3ccc(Oc4ccccc4)cc3)n2)c1` ?
OUTPUT: 0

INPUT: Could you tell me which %Inh is on file for `O=c1cc(N2CCOCC2)nc2n(Cc3cccc(C(F)(F)F)c3)ccn12` ?
OUTPUT: 0

INPUT: Could you tell me which %Inh is on file for `Cc1c2ccc(N(C)c3ccnc(Nc4cccc(S(N)(=O)=O)c4)n3)cc2nn1Cc1ccccc1.Cl.Cl` ?
OUTPUT: 0

---
INPUT: Could you tell me which %Inh is on file for `O=c1cc(N2CCOCC2)nc2n(Cc3cccc(Cl)c3Cl)c(C3CC3)nn12` ?
OUTPUT: 0

INPUT: Could you tell me which %Inh is on file for `Cc1nnc(-c2ccc(C)c(-c3ccc(C(=O)Nc4ccc(NS(C)(=O)=O)cc4)cc3)c2)o1` ?
OUTPUT: 12

INPUT: Could you tell me which %Inh is on file for `CC(C)Oc1ccc2c(-c3ccnc(Nc4ccc(N5CCN(C)CC5)cc4)n3)cnn2n1` ?
OUTPUT: 42

INPUT: Could you tell me which %Inh is on file for `N#Cc1ccc(-c2cc(-c3c[nH]nc3-c3ccccn3)ccn2)cc1` ?
OUTPUT: 0

---

System: PIK3CB
Conditions: concentration: 1 μM, replicates: in singlicate; n = 1
Measure: %Inh (%)
Express it in %; write the number only.

Observe how each entry below is paired with its result.
INPUT: Could you tell me which %Inh is on file for NCC(NC(=O)c1cc(-c2cn[nH]c2)c(-c2ccnc3[nH]ccc23)s1)c1ccccc1.O=C(O)C(F)(F)F.O=C(O)C(F)(F)F (stereo not shown) [GSK1325775] ?
OUTPUT: 0

INPUT: Could you tell me which %Inh is on file for NS(=O)(=O)c1cccc(-c2ccc3ncc(N4CCOCC4)nc3c2)c1 [GSK1535721] ?
OUTPUT: 12

INPUT: Could you tell me which %Inh is on file for CC(C)(C)n1cnc2c(N)ncnc21 [SKF-97359] ?
OUTPUT: 0

---
INPUT: Could you tell me which %Inh is on file for COc1ccc(Nc2nccc(N3CCC(NC(=O)Nc4cc(C)ccc4C)C3)n2)cc1 (stereo not shown) [GSK1379741] ?
OUTPUT: 0

INPUT: Could you tell me which %Inh is on file for COc1ccc(Nc2ncc(C#N)c(Nc3ccccc3C(N)=O)n2)cc1N1CCN(C)CC1.Cl [GSK1558669] ?
OUTPUT: 0

INPUT: Could you tell me which %Inh is on file for `N#Cc1c(N2CCOCC2)sc(-c2ccn[nH]2)c1-c1ccc(Cl)cc1` ?
OUTPUT: 97

INPUT: Could you tell me which %Inh is on file for Nc1nccc(-c2c(-c3ccc(F)cc3)ncn2C2CCN(CC(F)(F)F)CC2)n1 [SB-236560] ?
OUTPUT: 18

INPUT: Could you tell me which %Inh is on file for `Cn1ccc2ncnc(Oc3ccc(NC(=O)Nc4ccncc4)c(Cl)c3)c21` ?
OUTPUT: 0

INPUT: Could you tell me which %Inh is on file for O=C(Nc1n[nH]c2cc(-c3cccc(F)c3)ccc12)C1CC1 [SB-735464] ?
OUTPUT: 4

INPUT: Could you tell me which %Inh is on file for NS(=O)(=O)CCc1cccc(Nc2nccc(-c3c(-c4cccc(NC(=O)c5c(F)cccc5F)c4)nn4ccccc34)n2)c1 [GSK336735] ?
OUTPUT: 0

INPUT: Could you tell me which %Inh is on file for Cc1nnc(-c2ccc3occ(-c4ccc(C(C)O)cc4)c3c2)o1 (stereo not shown) ?
OUTPUT: 18

INPUT: Could you tell me which %Inh is on file for O=C(Nc1cccc(-c2nn3ncccc3c2-c2ccnc(Nc3cccc(C(F)(F)F)c3)n2)c1)c1c(F)cccc1F [GSK299495] ?
OUTPUT: 0

INPUT: Could you tell me which %Inh is on file for CC(C)Oc1ccc2c(-c3ccnc(Nc4ccc(N5CCN(C)CC5)cc4)n3)cnn2n1 [GW696155] ?
OUTPUT: 21

INPUT: Could you tell me which %Inh is on file for `Cc1cccc(-c2nc(-c3ccc(S(C)(=O)=O)cc3)sc2-c2ccncc2)c1` ?
OUTPUT: 1

INPUT: Could you tell me which %Inh is on file for Cc1nnc(-c2ccc(C)c(-c3ccc(C(=O)Nc4ccc(NS(C)(=O)=O)cc4)cc3)c2)o1 [GW702865] ?
OUTPUT: 0

INPUT: Could you tell me which %Inh is on file for `COc1cc2c(cc1OCCN1CCN(C)CC1)ncc1c3ccc(C#N)cc3[nH]c21` ?
OUTPUT: 0

INPUT: Could you tell me which %Inh is on file for COC(=O)Nc1nc2cc(Oc3ccc(NC(=O)Nc4cc(F)ccc4F)cc3)ccc2[nH]1.Cl [GW701424] ?
OUTPUT: 0

INPUT: Could you tell me which %Inh is on file for C[C@@H](Oc1cc(-n2cnc3ccc(NC(=O)NC(C)(C)C)cc32)sc1C(N)=O)c1ccccc1Cl [GSK346294] ?
OUTPUT: 5

INPUT: Could you tell me which %Inh is on file for `CSc1ccc(-c2cc3ncnc(SCC(=O)O)c3s2)cc1` ?
OUTPUT: 0
